# tested_system: T1, human CD3ε/δ-Fc fusion protein (soluble recombinant CD3ε/δ complex) (human, UniProt P04234 22-105)
# T1 construct: also called huCD3ε/δ; huCD3; not shown: hinge, CH2, CH3 of human IgG with tag
# T1 sequence (chain, as listed by the source mutant, chain 1 of 2): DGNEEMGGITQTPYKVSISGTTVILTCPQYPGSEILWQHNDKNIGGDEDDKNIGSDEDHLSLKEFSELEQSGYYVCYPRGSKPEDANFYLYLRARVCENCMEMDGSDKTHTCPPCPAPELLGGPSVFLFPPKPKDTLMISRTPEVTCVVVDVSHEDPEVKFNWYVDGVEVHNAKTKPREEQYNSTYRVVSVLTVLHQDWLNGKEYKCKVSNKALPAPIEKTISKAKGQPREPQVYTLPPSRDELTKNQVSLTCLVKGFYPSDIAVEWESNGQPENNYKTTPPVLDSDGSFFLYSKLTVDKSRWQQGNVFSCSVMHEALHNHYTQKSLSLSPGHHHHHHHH
# T1 sequence (P04234 22-105, stated change not applied, chain 2 of 2): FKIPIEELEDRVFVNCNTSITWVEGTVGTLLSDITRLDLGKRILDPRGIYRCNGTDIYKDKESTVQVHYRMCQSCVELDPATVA
# assay_details: SPR Biacore, Fab
attribute_measured: kon (M⁻¹ s⁻¹)
Report the value in M⁻¹ s⁻¹ with no unit label.

# query: kon of entry 4B4-D7 Fab (Fab, V domains shown, also called BDW-4B4-D7) VH: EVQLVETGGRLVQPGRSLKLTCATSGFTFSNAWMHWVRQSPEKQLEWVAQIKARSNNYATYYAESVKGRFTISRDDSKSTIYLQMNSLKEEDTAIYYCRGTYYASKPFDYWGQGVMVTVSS VL: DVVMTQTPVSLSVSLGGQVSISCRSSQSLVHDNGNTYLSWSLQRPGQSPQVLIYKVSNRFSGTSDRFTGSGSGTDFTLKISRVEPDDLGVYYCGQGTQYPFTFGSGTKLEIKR
110000
